Measured pKd by item
Molecular target: human anti HIV-1 monoclonal antibody 2F5 IgG (human)
Assay: BLI; streptavidin bio-assay (Octet QKe): biotinylated 2F5 IgG loaded on streptavidin biosensors, association and dissociation of purified Ab2/3H6 variants; kinetics buffer; KD averaged over different Ab2/3H6 concentrations
Reminder that pKd is minus the log10 of a molar concentration.

Below, 2 binders whose answers are already recorded.
INSERT INTO measurements (binder, experimental_result) VALUES
  ('BM09 (su3H6 with T94hR, Y27hA) (antibody, V domains shown) VH: EVQLVQSGAEVKKPGATVKISCKVSGATFTDYFMHWVQQAPGKGLEWMGYINCYTGATNYSQKFKGRVTITADTSTDTAYMELSSLRSEDTAVYYCARTSIGYGSSPPFPYWGQGTLVTVS VL: ETTLTQSPAFMSATPGDKVNISCITSTDIDDDMNWYQQKPGEAAIFIIQDGNTLRPGIPPRFSGSGYGTDFTLTINNIESEDAAYYFCLQSDNLPYTFGQGTKLEIK', 5.08),
  ('BM07/vL01 (su3H6 with T94hR, F46lL) (antibody, V domains shown) VH: EVQLVQSGAEVKKPGATVKISCKVSGYTFTDYFMHWVQQAPGKGLEWMGYINCYTGATNYSQKFKGRVTITADTSTDTAYMELSSLRSEDTAVYYCARTSIGYGSSPPFPYWGQGTLVTVS VL: ETTLTQSPAFMSATPGDKVNISCITSTDIDDDMNWYQQKPGEAAILIIQDGNTLRPGIPPRFSGSGYGTDFTLTINNIESEDAAYYFCLQSDNLPYTFGQGTKLEIK', 7.55);

Now consider a different binder.
Exercise: Query pKd for BM07 (su3H6 with T94hR) (antibody, V domains shown) VH: EVQLVQSGAEVKKPGATVKISCKVSGYTFTDYFMHWVQQAPGKGLEWMGYINCYTGATNYSQKFKGRVTITADTSTDTAYMELSSLRSEDTAVYYCARTSIGYGSSPPFPYWGQGTLVTVS VL: ETTLTQSPAFMSATPGDKVNISCITSTDIDDDMNWYQQKPGEAAIFIIQDGNTLRPGIPPRFSGSGYGTDFTLTINNIESEDAAYYFCLQSDNLPYTFGQGTKLEIK
Key: 6.48

Data provenance is paper PMC6277173.
